Reported pIC50 values for the following compounds.
target.desc: UniProtKB P16184
Sequence (P16184 whole entry): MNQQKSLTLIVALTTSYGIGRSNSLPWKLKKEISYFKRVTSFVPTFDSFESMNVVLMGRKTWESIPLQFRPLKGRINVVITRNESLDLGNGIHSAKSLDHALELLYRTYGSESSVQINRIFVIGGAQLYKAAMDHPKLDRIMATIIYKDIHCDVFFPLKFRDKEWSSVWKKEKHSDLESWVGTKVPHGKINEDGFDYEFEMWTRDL
// pIC50: -log10(molar conc.)

CN(Cc1coc2nc(N)nc(N)c12)c1ccc(C(=O)NC(CCC(=O)O)C(=O)O)cc1 (stereo unspecified) = 7.46
Nc1nc(N)c2c(CNc3ccc(C(=O)NC(CCC(=O)O)C(=O)O)cc3)coc2n1 (stereo unspecified) = 6.05

Next:
# input What value of pIC50 has been recorded for this entry: Nc1nc(N)c2c(CNc3cc(Cl)c(Cl)c(Cl)c3)coc2n1
# output 5.08
